protocolText: soluble fraction after stress (log2 fold change); higher = more stays soluble; pooled small domains, quantitative proteomics;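 further: 20 min heating vs room temperature control held 20 min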
conditionSummary: stress: 75 degC
Outcome label depends on soluble fraction (log2) relative to -0.3: at/above gives yes (1), below gives no (0).

[[record]]
seq = "HMDRRDEYHQHLLRLLLSGEIRDKDELQRRKVKLSGEYGLAGVPKNSETLALVPPDRLPEVLDILR"
group = "yes (1)"

[[record]]
seq = "HMGKINEIVANNIAILRKKNRLSLEELGKLSGVSKSMLALIEKGDGNPTLGILWKIANGLGVPFDELTRRP"
group = "no (0)"

[[record]]
seq = "HMGKPVTMELLIPYSQGSLVHRISEAGEVAKTEYQNDGTYMQVTFTPSAKDHALMQEVASYRI"
group = "yes (1)"

[[record]]
seq = "HMKVYIKDISDLSDKLKSLLIENDIDDSNKLFEVEDQVLLEIKGLGSKTIDKIKDIVTEYLKKNN"
group = "yes (1)"

[[record]]
seq = "HMSEVSEILTRARFFAGVKTDAELSTLLKIPYGTLIGWKTRKNIPESRIAQMALILGIRRDTLIPA"
group = "no (0)"

[[record]]
seq = "HMAHLNYQTVDINALIRHSLQLVSQDAQSRGIALQFTPRPELTTISADPDRLNQVLLNLYLNAMQD"
group = "no (0)"

[[record]]
seq = "HMEEIPYGVISAKAGAAAYDYIKKSIELGIEKKIDGVATAPIQKEAIHMAGISYIGHTEMYQGIT"
group = "yes (1)"

[[record]]
seq = "HMLADRANMAPAALRQIMTAIDGGNVTPKQIESATGMAHATVARALRKMLDDGLIANDGKGRYTVLT"
group = "yes (1)"

